# System: BV-2
# protocol: cells
# Type: functional, cell-based
# run.conditions: Mus musculus, BV-2, 24 h
# Description: Cytotoxicity against mouse BV-2 cells assessed as reduction in cell viability measured after 24 hrs by MTT assay
pIC50: −log10 of the molar value.
Classes by pIC50: class A: < 4; class B: ≥ 4 and < 5; class C: ≥ 5

Input line: Where would O=C(NCCc1c[nH]c2ccccc12)c1ccccc1OC(=O)N1CCc2ccccc21 land among the classes by reported pIC50?
Output line: class A

Input line: Which class does CN(C(=O)Oc1ccccc1C(=O)NCCc1c[nH]c2ccccc12)c1ccccc1 fall in?
Output line: class B

Input line: Into which category would you place CON(C)C(=O)Oc1ccccc1C(=O)NCCc1c[nH]c2ccccc12 ?
Output line: class A

Input line: Kindly state the category for this compound: O=C(NCCc1c[nH]c2ccccc12)c1ccccc1OC(=O)N1CCCCCC1
Output line: class B

Input line: Into which bin does this compound go? O=C(NCCc1c[nH]c2ccccc12)c1ccccc1OC(=O)N1CCSCC1
Output line: class C

Input line: For the record CON(C)C(=O)Oc1ccc(C(=O)NCCc2c[nH]c3ccccc23)cc1 , report the class its pIC50 corresponds to.
Output line: class B

Input line: Class for CCN(CC)C(=O)Oc1ccccc1C(=O)NCCc1c[nH]c2ccccc12 ?
Output line: class B

Input line: Dear colleague, I would appreciate it if you could identify the bin for O=C(NCCc1c[nH]c2ccccc12)c1ccccc1OC(=O)N(Cc1ccccc1)Cc1ccccc1 and reply at your convenience.
Output line: class A

Input line: GET /class?item= COc1cc2c(cc1OC)C(=O)C(CC1CCN(Cc3ccccc3)CC1)C2 (stereo not given) [DONEPEZIL]
Output line: class C

Input line: Which pIC50 band matches O=C(NCCc1c[nH]c2ccccc12)c1ccccc1OC(=O)N1CCCCC1 ?
Output line: class B

Input line: Category of O=C(NCCc1c[nH]c2ccccc12)c1ccccc1O :
Output line: class B

Input line: Hi, small favor: classify CN(C)C(=O)Oc1ccccc1C(=O)NCCc1c[nH]c2ccccc12 by its pIC50 when you get a moment.
Output line: class B

Input line: Dear colleague, I would appreciate it if you could identify the bin for CN1CCN(C(=O)Oc2ccccc2C(=O)NCCc2c[nH]c3ccccc23)CC1 and reply at your convenience.
Output line: class B

Input line: Where would O=C(NCCc1c[nH]c2ccccc12)c1ccccc1OC(=O)N1CCC1 land among the classes by reported pIC50?
Output line: class B

Input line: Hi there! Could you help me figure out the category for CCCN(CCC)C(=O)Oc1ccccc1C(=O)NCCc1c[nH]c2ccccc12 please?
Output line: class C

Input line: Which bin should I file O=C(NCCc1c[nH]c2ccccc12)c1ccccc1OC(=O)N1CCCC1 under?
Output line: class B

* * *

# protocol: Acute toxicity in Sprague-Dawley rat assessed as lethal dose administered intragastrically as single dose measured after 14 days
# run.conditions: in vivo, po, time 14 day
property.name: LD50 at 336 h

Input line: Entry CON(C)C(=O)Oc1ccccc1C(=O)NCCc1c[nH]c2ccccc12 needs its LD50 at 336 h filled in; supply it.
Output line: > 2000 mg/kg

* * *

# protocol: Half life in Sprague-Dawley rat at 100 mg/kg, po measured upto 24 hrs by LC-MS analysis
# Format: ADME, organism-based
# run.conditions: in vivo
property.name: half-life
Report field: quantity (unit follows the number).

Input line: Return half-life (reported value) for this molecule: CON(C)C(=O)Oc1ccccc1C(=O)NCCc1c[nH]c2ccccc12
Output line: 5.34 h

* * *

# protocol: Cmax in Sprague-Dawley rat at 100 mg/kg, po measured upto 24 hrs by LC-MS analysis
# Type: ADME, organism-based
# Parameters: route oral, dose 100 mg/kg, time <=24
# run.conditions: in vivo
property.name: Cmax (µg/mL)
Give the quantity in µg/mL, number only.

Input line: Check the records and state Cmax for CON(C)C(=O)Oc1ccccc1C(=O)NCCc1c[nH]c2ccccc12
Output line: 3.03

* * *

I'd be grateful if you could share measured IC50 for these entries.
Express your answer in µM, writing the number without its unit.

Input line: Specify the recorded IC50 for CCCN(CCC)C(=O)Oc1ccccc1C(=O)NCCc1c[nH]c2ccccc12 , system: UniProt O42275.
Output line: 37.2

Input line: Please respond with reported IC50 (system UniProt O42275) for CN(C)C(=O)Oc1ccccc1C(=O)NCCc1c[nH]c2ccccc12 .
Output line: 16.7

Input line: Please tell me the measured IC50 for CN1CCN(C(=O)Oc2ccccc2C(=O)NCCc2c[nH]c3ccccc23)CC1 ; system: UniProt O42275.
Output line: 66

Input line: Provide IC50, tested on UniProt O42275, for CON(C)C(=O)Oc1ccc(C(=O)NCCc2c[nH]c3ccccc23)cc1 .
Output line: 3.11

Input line: Please tell me the measured IC50 for CCCCN(CCCC)C(=O)Oc1ccccc1C(=O)NCCc1c[nH]c2ccccc12 ; system: UniProt O42275.
Output line: 34.9

Input line: Enter IC50 (test system UniProt O42275) for CON(C)C(=O)Oc1ccccc1C(=O)NCCc1c[nH]c2ccccc12
Output line: 3.24

Input line: Report value only: IC50, UniProt O42275, CCN(CC)C(=O)Oc1ccccc1C(=O)NCCc1c[nH]c2ccccc12
Output line: 68.5

Input line: Identify measured IC50 obtained with UniProt O42275 for O=C(NCCc1c[nH]c2ccccc12)c1ccccc1O .
Output line: 23.2

* * *

# protocol: in vivo
# run.conditions: Sprague-Dawley, rat, brain/plasma, 100 mg/kg
# Description: Ratio of drug concentration in brain to plasma in Sprague-Dawley rat at 100 mg/kg measured at 10 mins by LC-MS analysis
property.name: Kp at 10 min

Input line: Annotate the molecule CON(C)C(=O)Oc1ccccc1C(=O)NCCc1c[nH]c2ccccc12 with its measured Kp at 10 min.
Output line: 15.7

* * *

property.name: pKi
Interpret pKi as the negative base-10 log of the concentration measured in mol/L.

Input line: Specify pKi for CON(C)C(=O)Oc1ccccc1C(=O)NCCc1c[nH]c2ccccc12 , system Acetylcholinesterase (Electrophorus electricus).
Output line: 5.80

* * *

Hi there, I'd appreciate the recorded log10 of IC50 for every entry that follows.
# subject.of.test: Cholinesterase (Equus caballus)
# Sequence (P81908 whole entry): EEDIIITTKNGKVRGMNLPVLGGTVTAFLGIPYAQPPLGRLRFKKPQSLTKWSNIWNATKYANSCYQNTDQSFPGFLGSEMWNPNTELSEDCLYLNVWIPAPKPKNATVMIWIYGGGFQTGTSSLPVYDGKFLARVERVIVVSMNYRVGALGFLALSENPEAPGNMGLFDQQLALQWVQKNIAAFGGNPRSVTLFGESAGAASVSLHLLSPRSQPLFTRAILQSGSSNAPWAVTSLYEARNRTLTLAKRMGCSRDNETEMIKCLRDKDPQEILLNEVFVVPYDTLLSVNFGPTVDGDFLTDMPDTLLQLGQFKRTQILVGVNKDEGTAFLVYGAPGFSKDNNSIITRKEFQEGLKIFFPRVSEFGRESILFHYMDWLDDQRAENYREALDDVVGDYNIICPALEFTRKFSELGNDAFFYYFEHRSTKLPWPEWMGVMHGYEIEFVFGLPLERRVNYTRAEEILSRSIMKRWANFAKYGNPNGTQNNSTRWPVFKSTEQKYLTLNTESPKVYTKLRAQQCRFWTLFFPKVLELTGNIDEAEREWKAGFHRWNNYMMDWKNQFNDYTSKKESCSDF
# protocol: Inhibition of equine serum BChE using butyrylthiocholine iodide as substrate preincubated for 10 mins followed by substrate addition and measured after 15 mins by Ellman's method
Would you kindly interpret these values as log10 of IC50 expressed in µM?

Input line: Answer with reported log10 of IC50 of CN1CCN(C(=O)Oc2ccccc2C(=O)NCCc2c[nH]c3ccccc23)CC1
Output line: 0.71

Input line: Specify measured log10 of IC50 for O=C(NCCc1c[nH]c2ccccc12)c1ccccc1OC(=O)N1CCCC1 .
Output line: 0.08

Input line: Consider the compound CCN(CC)C(=O)Oc1ccccc1C(=O)NCCc1c[nH]c2ccccc12 . State its measured log10 of IC50.
Output line: 1.15

Input line: Complete the entry with log10 of IC50 for O=C(NCCc1c[nH]c2ccccc12)c1ccccc1OC(=O)N1CCc2ccccc21
Output line: 1.48

Input line: Read off the recorded log10 of IC50 for O=C(NCCc1c[nH]c2ccccc12)c1ccccc1OC(=O)N1CCSCC1
Output line: 0.16

Input line: Identify log10 of IC50 associated with the compound O=C(NCCc1c[nH]c2ccccc12)c1ccccc1OC(=O)N(c1ccccc1)c1ccccc1
Output line: 0.67

Input line: Return value of log10 of IC50 for input CN(C(=O)Oc1ccccc1C(=O)NCCc1c[nH]c2ccccc12)c1ccccc1 , no commentary.
Output line: 1.47

Input line: Provide one value: measured log10 of IC50 of O=C(NCCc1c[nH]c2ccccc12)c1ccccc1O
Output line: 1.20

Input line: Specify log10 of IC50 for O=C(NCCc1c[nH]c2ccccc12)c1ccccc1OC(=O)N1CCCCCC1 and stop.
Output line: 1.38

Input line: Answer with the recorded log10 of IC50 for the compound listed here: CON(C)C(=O)Oc1cccc(C(=O)NCCc2c[nH]c3ccccc23)c1
Output line: 0.10

Input line: Report log10 of IC50, nothing else, for this compound: CON(C)C(=O)Oc1ccc(C(=O)NCCc2c[nH]c3ccccc23)cc1
Output line: 0.82

Input line: Identify log10 of IC50 associated with the compound CCCCN(CCCC)C(=O)Oc1ccccc1C(=O)NCCc1c[nH]c2ccccc12
Output line: 0.90

Input line: Input CN(C)C(=O)Oc1ccccc1C(=O)NCCc1c[nH]c2ccccc12 , output reported log10 of IC50.
Output line: 0.60

* * *

For each entry below, report its pIC50 value.
pIC50 field: float, defined as -log10 of concentration (mol/L).

Input line: Report pIC50 under test system Cholinesterase (Homo sapiens) for CN1c2ccc(OC(=O)NCC3CCCCC3)cc2[C@]2(C)CCN(CCc3ccccc3)[C@H]12 .
Output line: 8.74

Input line: Check Cholinesterase (Homo sapiens) data and give pIC50 for CC(C)c1ccc(NC(=O)Oc2ccc3c(c2)[C@]2(C)CCOC2O3)cc1 (stereo partly drawn) .
Output line: 7.57

Input line: Supply pIC50 measured with Cholinesterase (Homo sapiens) for CCNC(=O)Oc1ccc2c(c1)[C@]1(C)CCOC1O2 (stereo partly drawn) .
Sequence (P06276 whole entry): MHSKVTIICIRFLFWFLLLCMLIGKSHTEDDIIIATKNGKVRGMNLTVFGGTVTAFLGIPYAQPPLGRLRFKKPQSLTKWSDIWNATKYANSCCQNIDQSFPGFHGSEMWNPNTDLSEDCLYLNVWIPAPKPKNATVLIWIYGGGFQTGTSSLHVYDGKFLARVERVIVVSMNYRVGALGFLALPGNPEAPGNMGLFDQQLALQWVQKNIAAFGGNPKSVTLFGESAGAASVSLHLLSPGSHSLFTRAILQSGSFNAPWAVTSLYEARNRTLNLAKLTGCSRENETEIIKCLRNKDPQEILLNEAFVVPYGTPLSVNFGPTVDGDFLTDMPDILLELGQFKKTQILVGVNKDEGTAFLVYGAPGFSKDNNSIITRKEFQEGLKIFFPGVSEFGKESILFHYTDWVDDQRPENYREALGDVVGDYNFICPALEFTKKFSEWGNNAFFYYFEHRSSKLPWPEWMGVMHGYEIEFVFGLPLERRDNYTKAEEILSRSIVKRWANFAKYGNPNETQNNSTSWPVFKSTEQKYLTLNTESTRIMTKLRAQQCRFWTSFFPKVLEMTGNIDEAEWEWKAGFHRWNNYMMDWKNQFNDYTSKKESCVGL
Output line: 8.22
